- Experimental Protocol: TRM-201-PK-102 single-dose four-period crossover pharmacokinetic study, fasted healthy subjects
- Assay type: in vivo, human
- Test Context: human, plasma, oral, 12.5 mg, 102 study, body weight 70.1-77 kg, read-out: geometric mean Cmax
Reported Metric: Cmax (ng/mL)
# number only, unit ng/mL dropped from output

Q: Item under review: CS(=O)(=O)c1ccc(C2=C(c3ccccc3)C(=O)OC2)cc1 . Reported Cmax?
Result: 147

* * *

- Experimental Protocol: TRM-201-PK-102 single-dose four-period crossover pharmacokinetic study, fasted healthy subjects
- Type: in vivo, human
- Test Context: human, plasma, oral, 25 mg, 102 study, body weight 47-70 kg, read-out: arithmetic mean Cmax
Reported Metric: Cmax (ng/mL)
State just the number; it will be interpreted in ng/mL.

Q: Field request: Cmax | item: CS(=O)(=O)c1ccc(C2=C(c3ccccc3)C(=O)OC2)cc1
Result: 385

Cited source for all entries: patent US10945992B1
